# Tested on: SET-2 cells with JAK2V617F activation mutation
# assay text: CTG cell proliferation assay, SET-2 cells
# Format: cell-based, human
# run parameters: Homo sapiens, 72 h, CTG, read-out: IC50 for cell proliferation inhibition
pIC50: −log10 of the molar value.
value type: pIC50

>  <molecular string>
Cc1nc2ncc(-c3cn(C)c(=O)c4[nH]ccc34)nc2n1Cc1ccc(C(F)(F)F)cc1

>  <assay system>
SET-2 cells with JAK2V617F activation mutation

>  <value type>
pIC50

>  <value measured>
6.98

$$$$
